Source listed as paper PMC8794893.

target: Archaeoglobus fulgidus DsrAB dissimilatory sulfite reductase (Archaeoglobus fulgidus VC-16 …, UniProt Q59109 1-418; Q59110 1-366); assay: MST
Sequence (Q59109 whole entry, chain 1 of 2): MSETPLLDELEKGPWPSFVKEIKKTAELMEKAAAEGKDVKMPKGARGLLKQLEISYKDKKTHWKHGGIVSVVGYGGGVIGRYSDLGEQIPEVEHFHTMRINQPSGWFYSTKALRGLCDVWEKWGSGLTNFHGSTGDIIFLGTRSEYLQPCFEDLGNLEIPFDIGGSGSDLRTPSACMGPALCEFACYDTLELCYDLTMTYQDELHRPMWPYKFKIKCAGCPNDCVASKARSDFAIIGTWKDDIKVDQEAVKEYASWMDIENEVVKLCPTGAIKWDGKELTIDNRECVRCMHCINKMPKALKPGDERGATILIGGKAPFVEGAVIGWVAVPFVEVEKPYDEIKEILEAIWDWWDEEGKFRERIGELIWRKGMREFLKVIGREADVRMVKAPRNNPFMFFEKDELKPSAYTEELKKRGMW
Sequence (Q59110 whole entry, chain 2 of 2): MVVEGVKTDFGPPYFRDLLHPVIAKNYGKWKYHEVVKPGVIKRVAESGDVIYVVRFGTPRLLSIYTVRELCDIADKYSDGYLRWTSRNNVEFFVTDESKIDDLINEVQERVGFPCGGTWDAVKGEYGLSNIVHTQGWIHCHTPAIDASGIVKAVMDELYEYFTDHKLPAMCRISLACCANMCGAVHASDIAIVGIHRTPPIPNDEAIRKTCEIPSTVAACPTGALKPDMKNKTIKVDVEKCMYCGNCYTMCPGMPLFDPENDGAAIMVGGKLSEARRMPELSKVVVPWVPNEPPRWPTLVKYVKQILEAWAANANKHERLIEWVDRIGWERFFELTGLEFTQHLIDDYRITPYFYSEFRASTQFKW
readout.kind: Kd

Read off the recorded Kd for recombinant Archaeoglobus fulgidus DsrD with C-terminal His-tag (natural protein, Archaeoglobus fulgidus VC-16, UniProt P70742 1-77, looked up, RED-NHS dye on amines (Monolith NT Protein Labeling Kit RED-NHS second generation), in the MST experiment only) MADYTEEDKQKVLAQLSKKTWKIPELAKILKMDKKVVKKIVQDLINEGVAGYWSSGSTTYVATKEYIEELEKKRAEG
350 nM
